System: Enterobacter RO 154
EXPERIMENT: MIC, in vitro dilution method, Enterobacter RO 154 (Table III)
Format: cell-based
CONDITION SUMMARY: RO154; Enterobacter RO 154; dilution method; read-out: MIC
Rule: measured MIC below 2 µg/mL gets T; anything equal to or greater than 2 µg/mL gets F.

Take a look at these entries with their results.
INSERT INTO measurements (compound, study_target, qualitative_label) VALUES
  ('Cc1cc(C)c(C(=O)OCC2=C(C(=O)O)N3C(=O)C(NC(=O)C(=NOC4(C(=O)O)CCC4)c4csc(N)n4)C3[S+]([O-])C2)c(C)c1CN (stereo not drawn)', 'Enterobacter RO 154', 'T'),
  ('CC(C)(N)C(=O)OCC1=C(C(=O)O)N2C(=O)C(NC(=O)/C(=N\OC(C)(C)C(=O)O)c3csc(N)n3)C2[S+]([O-])C1 (stereo not drawn)', 'Enterobacter RO 154', 'F'),
  ('CC(C)(ON=C(C(=O)NC1C(=O)N2C(C(=O)O)=C(COC(=O)CC(N)c3ccccc3)C[S+]([O-])C12)c1csc(N)n1)C(=O)O (stereo not drawn)', 'Enterobacter RO 154', 'F'),
  ('Cc1ccc(CN)c(C)c1C(=O)OCC1=C(C(=O)O)N2C(=O)C(NC(=O)C(=NOC3(C(=O)O)CCC3)c3csc(N)n3)C2[S+]([O-])C1 (stereo not drawn)', 'Enterobacter RO 154', 'T'),
  ('Cc1cc(CN)ccc1C(=O)SCC1=C(C(=O)O)N2C(=O)C(NC(=O)C(=NOC3(C(=O)O)CCC3)c3csc(N)n3)C2[S+]([O-])C1 (stereo not drawn)', 'Enterobacter RO 154', 'T'),
  ('CC(O)C(N)C(=O)OCC1=C(C(=O)O)N2C(=O)C(NC(=O)C(=NOC(C)(C)C(=O)O)c3csc(N)n3)C2[S+]([O-])C1 (stereo not drawn)', 'Enterobacter RO 154', 'F');

Q: Quick check: does NCc1cccc(C(=O)SCC2=C(C(=O)O)N3C(=O)C(NC(=O)C(=NOC4(C(=O)O)CCC4)c4csc(N)n4)C3[S+]([O-])C2)c1 (stereo not drawn) have MIC under 2 µg/mL?
Ans: T

Q: Quick check: does CNCc1cccc(C(=O)OCC2=C(C(=O)O)N3C(=O)C(NC(=O)/C(=N\OC(C)(C)C(=O)O)c4csc(N)n4)C3[S+]([O-])C2)c1 (stereo not drawn) have MIC under 2 µg/mL?
Ans: T

Q: Quick check: does CC(C)(ON=C(C(=O)NC1C(=O)N2C(C(=O)O)=C(CSC(=O)C3CCCNC3)C[S+]([O-])C12)c1csc(N)n1)C(=O)O (stereo not drawn) have MIC under 2 µg/mL?
Ans: F
